Molecular target: human CCR8 (human, UniProt P51685 1-355)
Sequence (P51685 whole entry): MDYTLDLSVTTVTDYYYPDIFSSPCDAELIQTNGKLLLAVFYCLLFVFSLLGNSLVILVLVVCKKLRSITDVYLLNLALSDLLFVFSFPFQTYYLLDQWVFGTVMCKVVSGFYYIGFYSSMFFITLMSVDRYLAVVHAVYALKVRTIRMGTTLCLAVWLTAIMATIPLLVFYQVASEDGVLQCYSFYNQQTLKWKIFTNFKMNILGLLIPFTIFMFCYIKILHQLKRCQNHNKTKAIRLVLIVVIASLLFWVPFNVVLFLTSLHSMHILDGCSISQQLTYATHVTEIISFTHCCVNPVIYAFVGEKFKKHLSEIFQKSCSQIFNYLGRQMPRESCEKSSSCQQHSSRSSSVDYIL
Test: cell-based or functional assay
Record form. Attribute: EC50, ADCC with human PBMC. Fill in for each entry.
# do not omit the unit; it follows the number

BINDER	EC50, ADCC with human PBMC
Hu149-9 (antibody, human IgG1, V domains shown, humanized, human IgG1; also called Hu149-9 HuIgG1) VH: EVQLVESGGGLVQPGGSLKLSCAASGFTFNTYAMNWVRQASGKGLEWVGRIRSKSNFYATAYAASVKGRFTISRDDSKNTAYLQMNSLKTEDTAVYYCTRGRDYGSSYAMDYWGQGTLVTVSS VL: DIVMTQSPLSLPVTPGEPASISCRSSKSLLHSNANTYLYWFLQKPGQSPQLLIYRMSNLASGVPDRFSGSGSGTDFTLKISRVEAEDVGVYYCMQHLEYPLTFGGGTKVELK	0.06 nM
Hu149-4 (antibody, human IgG1, V domains shown, humanized, human IgG1; also called Hu149-4 HuIgG1) VH: EVQLVESGGGLVQPGGSLKLSCAASGFTFNTYAMNWVRQASGKGLEWVGRIRSKSNFYATYYAASVKGRFTISRDDSKNTAYLQMNSLKTEDTAVYYCTRGRDYGSSYAMDYWGQGTLVTVSS VL: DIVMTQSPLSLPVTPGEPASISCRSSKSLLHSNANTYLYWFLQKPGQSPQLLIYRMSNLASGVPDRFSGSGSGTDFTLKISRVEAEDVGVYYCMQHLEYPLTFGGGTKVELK	0.002 nM
Hu348-4 (antibody, human IgG1, V domains shown, humanized, human IgG1; also called Hu348-4 HuIgG1) VH: EVQLVESGGGLVQPGGSLKLSCATSGFSFSNYRMHWLRQASGKGLEWVGVITVKSDNYGANYAASVKGRFTISRDDSKSSVYLQMNSLKTEDTAVYYCSSLGRVAYWGQGTLVTVSS VL: DIQMTQSPSSVSASVGDRVTITCKASQNVDTNVVWYQQKPGQSPKALIYSASSRYSGVPSRFSGSGSGTDFTLTISSLQPEDFATYYCQQHNSFPLTFGQGTKLEIK	0.517 nM
CM149 (antibody, V domains shown, CM149 is not defined in words; also called CM149 HuIgG1; parental antibody CM149) VH: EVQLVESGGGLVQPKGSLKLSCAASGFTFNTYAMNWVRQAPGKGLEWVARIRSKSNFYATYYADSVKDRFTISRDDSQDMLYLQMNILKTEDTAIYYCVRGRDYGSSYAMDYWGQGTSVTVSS VL: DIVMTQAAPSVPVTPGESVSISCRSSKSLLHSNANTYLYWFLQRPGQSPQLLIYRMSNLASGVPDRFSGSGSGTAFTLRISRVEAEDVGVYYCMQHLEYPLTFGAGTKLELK	0.067 nM

Turning now to a further binder:
(Q) Give the measured EC50, ADCC with human PBMC of CM348 (antibody, V domains shown, CM348 is not defined in words; also called CM348 HuIgG1; parental antibody CM348) VH: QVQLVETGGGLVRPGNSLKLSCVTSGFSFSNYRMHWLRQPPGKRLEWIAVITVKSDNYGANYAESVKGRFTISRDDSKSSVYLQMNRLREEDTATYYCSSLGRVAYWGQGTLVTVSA VL: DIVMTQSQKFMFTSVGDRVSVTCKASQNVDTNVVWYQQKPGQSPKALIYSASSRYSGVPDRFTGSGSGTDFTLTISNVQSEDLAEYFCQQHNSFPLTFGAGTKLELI .
(A) 0.41 nM
